target: T1, SARS-CoV2 Spike ecto foldon Trimer expressed with a C-terminal myc-myc-hexahistidine (SARS-CoV-2, UniProt P0DTC2 14-1213); experiment: SPR Biacore, mAb captured by anti-hFc, 25C
T1 construct: extracellular domain
Kindly supply the reported koff values for the records listed here.
Give bare numbers, in s⁻¹.

These recorded examples may help you get a feel for the data.
mAb15165 (antibody, V domains shown) VH: EVQLVESGGGLVQPGGSLRLSCAASGFTVSSNYMSWVRQAPGKGLEWVSAIYSGDSTYYADSVKGRFTISKDNSKNTLYLQMNSLRGEDTAVYYCARLGGALQAYDGAFDYWGQGTLATVSS VL: QSALTQPASVSGSPGQSITISCTGTSSDFGSYNLVSWYQQHPGKAPKLMIYEGNKRPSGVSIRFSGSKSGNTASLTISGLQAEDEADYYCSSYAGSSTWVFGGGTKLTVLG = 1.09e-05
mAb14285 (antibody, V domains shown) VH: QVQLVQSGAEVKKPGASVKVSCKASGYTFTGYFIHWVRQAPGQGLEWMGWISPISGGTNYAQKFQGRVTVTRDTSITTAYMELSRLTSDDTAVYHCAREGGTWKGDFDYWGQGTLVTVSS VL: QSALTQPASVSGSPGQSITISCTGTSSDVESYNLVSWYQQHPGKAPKLMIYEGSKRPSGVSNRFSGSKSGNTASLTISGLQAEDEADYYCSSYAGSSTWVFGGGTKLTVLG = 3.98e-05
mAb14257 (antibody, V domains shown) VH: EVQLVESGGGLVQPGGSLRLSCAASGFTVSRSYMNWVRQAPGKGLEWVSVVFTGGTTKHTDSVKGRFTISRDNSMNTLYLQMNSLRPEDTAVYYCARVAIVETTGAFDIWGQGTMVTVSS VL: QSVLTQPPSVSGAPGQRVTISCTGTSSNIGADFDVHWYQQFPGTAPKLLIYGHTNRPSGIPDRFSGSKSGTSASLAITGLQAEDEADYYCQSYDSSLSGSVVFGGGTKLTVLG = 0.000107
mAb15151 (antibody, V domains shown) VH: QVQLVESGGGVVQPGRSLRLSCAASGFVFNSYGMHWVRQAPGKGLEWVAVLWYEGSKNYYADSVKGRFTISRDNSKNTLYLQMNSLRAEDTAVYYCARHGSGSFFGYYLDYWGQGTLVTVSS VL: DIQMTQSPSSLSASVGDRVTITCRASHNINDFLNWYQQKPGKAPRLLIYAASSLQSGVPSRFSGSGSGTDFTLTISSLQPEDFATYYCQESYTTPPTFGQGTKLEIKR = 6.26e-05

Query :: Requested field: koff. Item: mAb15164 (antibody, V domains shown) VH: EVQLVESGGGLVQPGGSLRLSCAASGFAVSSNYMTWVRQAPGKGLEWVATIYSGDSTYYADSVKGRFTISRHNSKNTLSLQMNSLRADDTAIYYCARLSGVLSGTYNGAFDIWGQGTMVTVSS VL: QSALTQPASVSGSPGQSITISCTGTSSDFGNYNIVSWYQQHPGQAPKVMIYEGNKRPSGVSNRFSGSKSGHTASLTISGLQAEDEADYYCSSYAGSSTWVFGGGTKLTVLG
Result :: 2.58e-05
